src = patent US20030144317A1

test details: Stability testing (initial 5% w/w water) of the composition produced in Example 4
condition notes: composition of Example 4 (initial 5% w/w water; H2O content 4.76 w/w), day 16 of reaction at 50° C.; b61 reads the values as % of the composition
property label: relative amount of component at end of reaction (start of the stability trial)

>  <chemical string>
CN1[C@H]2CC[C@@H]1[C@@H](C(=O)O)[C@@H](OC(=O)c1ccccc1)C2

>  <endpoint value>
63.8

$$$$
>  <chemical string>
O=C(O)c1ccccc1

>  <endpoint value>
8.99

$$$$
>  <chemical string>
COC(=O)C1=CC[C@@H]2CC[C@H]1N2C

>  <endpoint value>
1.00

$$$$
>  <chemical string>
COC(=O)[C@H]1[C@@H](OC(=O)c2ccccc2)C[C@@H]2CC[C@H]1N2C

>  <endpoint value>
0.95

$$$$

###

relative amount of component, stability at 40° C. after 13 days values by entry
test details: Stability testing (absence of water) of the composition produced in Example 3
condition notes: composition of Example 3 (absence of water), 40° C., 13 days
property label: relative amount of component, stability at 40° C. after 13 days

>  <molecule>
COC(=O)[C@H]1[C@@H](OC(=O)c2ccccc2)C[C@@H]2CC[C@H]1N2C [BME]

>  <endpoint value>
0.90

$$$$
>  <molecule>
O=C(O)c1ccccc1 [BA, benzoic acid]

>  <endpoint value>
28.75

$$$$
>  <molecule>
COC(=O)C1=CC[C@@H]2CC[C@H]1N2C [Methyl Ecd]

>  <endpoint value>
1.26

$$$$
>  <molecule>
CN1[C@H]2CC[C@@H]1[C@@H](C(=O)O)[C@@H](OC(=O)c1ccccc1)C2 [BEc, benzoylecgonine]

>  <endpoint value>
4.28

$$$$

###

test details: Stability testing (initial 5% w/w water) of the composition produced in Example 4
condition notes: composition of Example 4 (initial 5% w/w water), 25° C., 13 days
# reported relative amount of component, stability at 25° C. after 13 days; entries follow
property label: relative amount of component, stability at 25° C. after 13 days

>  <chemical string>
COC(=O)[C@H]1[C@@H](OC(=O)c2ccccc2)C[C@@H]2CC[C@H]1N2C

>  <endpoint value>
0.84

$$$$
>  <chemical string>
COC(=O)C1=CC[C@@H]2CC[C@H]1N2C

>  <endpoint value>
0.86

$$$$
>  <chemical string>
O=C(O)c1ccccc1

>  <endpoint value>
9.17

$$$$
>  <chemical string>
CN1[C@H]2CC[C@@H]1[C@@H](C(=O)O)[C@@H](OC(=O)c1ccccc1)C2

>  <endpoint value>
64.02

$$$$

###

relative amount of component, stability at 40° C. after 13 days for assorted compounds
test details: Stability testing (initial 5% w/w water) of the composition produced in Example 4
condition notes: composition of Example 4 (initial 5% w/w water), 40° C., 13 days
property label: relative amount of component, stability at 40° C. after 13 days

>  <compound>
O=C(O)c1ccccc1 [BA, benzoic acid]

>  <endpoint value>
9.68

$$$$
>  <compound>
CN1[C@H]2CC[C@@H]1[C@@H](C(=O)O)[C@@H](OC(=O)c1ccccc1)C2 [BEc, benzoylecgonine]

>  <endpoint value>
66.31

$$$$
>  <compound>
COC(=O)[C@H]1[C@@H](OC(=O)c2ccccc2)C[C@@H]2CC[C@H]1N2C [BME]

>  <endpoint value>
0.46

$$$$
>  <compound>
COC(=O)C1=CC[C@@H]2CC[C@H]1N2C [Methyl Ecd]

>  <endpoint value>
0.80

$$$$
